- test-summary: chemical genetic growth profiling, strain panel (AID 1159580);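 further: tested at 20 µM; growth read once vehicle control cultures reached saturation at 30 °C; 1 = growth at the plate median or of vehicle wells; lower values mean less growth of the strain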
- stated-conditions: S. cerevisiae deletion strains, growth OD, locus YCL061C, strain MRC1 (second series), hits give low values
In all, about 5,500 compounds went through this assay and about 2,000 (36%) were called active. Roughly 18% stayed inconclusive and do not appear here. This is one part of the list.
measurement-name: normalized growth
Give bare numbers.

- molecule: "CC[C@@H]1Cc2cc(O)ccc2C2=C1c1ccc(O)cc1C[C@H]2CC"
  normalized growth: 0.995
- molecule: "CCCN(CCC)[C@@H]1CCc2c(F)ccc(O)c2C1"
  normalized growth: 1.01
- molecule: "CCCN(CCC)[C@@H]1CCc2cccc(O)c2C1"
  normalized growth: 0.995
- molecule: "NC(N)=N[C@@H](CCC(=O)O)C(=O)O"
  normalized growth: 1.01
- molecule: "CCOC(=O)c1ncn2c1[C@@H]1CCCN1C(=O)c1cc(OC)ccc1-2"
  normalized growth: 1.01
- molecule: "CC(=O)SC1CC2=CC(=O)CC[C@]2(C)C2CC[C@@]3(C)C(CC[C@@]34CCC(=O)O4)C12 (some centres not stated)"
  normalized growth: 1
- molecule: "CCCCCC(CC(=O)NO)C(=O)NC(C(=O)N1CCCC1CO)C(C)C (configuration not stated)"
  normalized growth: 0.995
- molecule: "COC(=O)c1cc2c(cn1)[nH]c1ccccc12"
  normalized growth: 1

Below is a list of molecules. For each, state its recorded normalized growth.
1. CCCN(CCC)C1CCc2ccc(O)cc2C1 (configuration not stated)
2. N[C@@H](CCCC(=O)O)C(=O)O
3. C#CCN1C(C)=C(C(=O)OC)C(c2cccc([N+](=O)[O-])c2)C(C(=O)OCC)=C1C (configuration not stated)
4. CC(C(=O)O)c1ccc(CC2CCCC2=O)cc1 (configuration not stated)
5. CSc1nc(N)c2ncn([C@@H]3O[C@H](COP(=O)(O)OP(=O)(O)O)[C@H](O)C3O)c2n1 (some centres not stated)
6. O=C(O)CCC/C=C\C[C@@H]1[C@@H](/C=C/[C@H](O)C2Cc3ccccc3C2)[C@@H](F)C[C@@H]1O
7. C=CCN1CC[C@]23CCCCC2[C@H]1Cc1ccc(O)cc13 (some centres not stated)

Result:
1: 1.01; 2: 1.01; 3: 1; 4: 1; 5: 1.01; 6: 0.998; 7: 1.01

// each molecule listed below needs its normalized growth
1. COc1ccc(-n2nc(C(F)(F)F)cc2-c2ccc(Cl)cc2)cc1
2. O=C(O)CC[C@@H](C(=O)O)N1C(=O)c2ccccc2C1=O
3. NOCC(=O)O

Result:
1.01
1.01
0.985

// each listed molecule needs a value for normalized growth
1. CCCN(CCC)[C@H]1CCc2c(F)ccc(O)c2C1
2. CC(=O)[C@H]1CC[C@H]2[C@@H]3CC[C@H]4C[C@H](O)CC[C@]4(C)[C@H]3C(=O)C[C@]12C
3. CCCN(CCC)[C@@H]1CCc2ccc(O)cc2C1
4. COc1ccc(-c2ccc(N)[n+](CCCC(=O)O)n2)cc1

Result:
1
0.995
0.988
1

----------
- test-summary: chemical genetic growth profiling, strain panel (AID 1159580);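 further: tested at 20 µM; growth read once vehicle control cultures reached saturation at 30 °C; 1 = growth at the plate median or of vehicle wells; lower values mean less growth of the strain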
- stated-conditions: S. cerevisiae deletion strains, growth OD, locus YOR001W, strain rrp6, hits give low values
About 2,000 (36%) of roughly 5,500 compounds were called active. Roughly 18% stayed inconclusive and do not appear here. The list shows a part of the results.
Binarize normalized growth at 1; below is 1 (yes), at or above is 0 (no).

Here are 4 molecules together with their reported answers.
- molecule: "CC(C)CCCC(C)[C@H]1CCC2C3CC[C@H]4CC(=O)CC[C@]4(C)C3CC[C@@]21C (stereo partly specified)"
  class-assignment: "1 (yes)"
- molecule: "CCCc1nc(C(C)(C)O)c(C(=O)OCc2oc(=O)oc2C)n1Cc1ccc(-c2ccccc2-c2nn[nH]n2)cc1"
  class-assignment: "1 (yes)"
- molecule: "CCOC(=O)C1=C(C)NC(C)=C(C(=O)OC)C1c1cccc([N+](=O)[O-])c1 (stereo unspecified)"
  class-assignment: "0 (no)"
- molecule: "O=C1c2ccccc2-c2cccc3cccc1c23"
  class-assignment: "1 (yes)"

Below: the item to evaluate.
Request: # strict comparison: is reported normalized growth < 1? input = C[C@]12CCC3C(CC[C@H]4CC(=O)CC[C@]34C)C1CCC2=O (stereo partly specified)
Result: 1 (yes)
